# abundance fitness per record follows
B1: Membrane-associated guanylate kinase, WW and PDZ domain-containing protein 1, residues 352 to 401; numbered along this chain, Q96QZ7 (parent)
chain: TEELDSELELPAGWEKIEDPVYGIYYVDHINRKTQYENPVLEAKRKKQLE

# Variants of: B1
# test description: abundance fitness (aPCA) (normalised: wild type 0, dead -1); higher = more abundant; growth selection in yeast, the domain comes from the species named
# condition context: Homo sapiens
Please give only the number in your answer, with no unit.

mutation annotation: V27R
observed property: abundance fitness
obs value: -0.069
--
mutation annotation: Q48Y
observed property: abundance fitness
obs value: -0.152
--
mutation annotation: Q35N
observed property: abundance fitness
obs value: -0.516

Req: Annotate the variant K33T with its measured abundance fitness.
Resp: -0.158

Req: Answer with reported abundance fitness of Q48V
Resp: -0.115

Req: Annotate the variant Q35L with its measured abundance fitness.
Resp: -0.423

Req: Report abundance fitness, nothing else, for this variant: Q35Y
Resp: -0.15

Req: Return reported abundance fitness. Input variant: Q48M
Resp: 0.001

Req: State, in one line, measured abundance fitness of E9F
Resp: -0.441
